# test.description: Cytotoxicity against human LS180 cells assessed as cell viability at 10 uM after 48 hrs by MTT assay relative to control
# Format: cell-based
# stated.conditions: read-out: Activity
Overview of recorded viability at 48 h, 10 µM for various compounds

Consider the following illustrative entries.
compound	viability at 48 h, 10 µM
O=C1c2cc(Cl)ccc2-[n+]2ccc3c([nH]c4ccccc43)c21	67.9%
O=C(c1ccccc1)c1nccc2c1[nH]c1ccccc12	67.5%
O=C(c1ccc(Cl)c(Cl)c1Cl)c1nccc2c1[nH]c1ccccc12	84.9%
O=C1c2cc(F)c(Cl)cc2-[n+]2ccc3c([nH]c4ccccc43)c21	36.8%

For record `O=C1c2ccc(Cl)c(Cl)c2-[n+]2ccc3c([nH]c4ccccc43)c21` the listed viability at 48 h, 10 µM is 57.4%

For record `O=C(c1cc(F)c(F)cc1Cl)c1nccc2c1[nH]c1ccccc12` the listed viability at 48 h, 10 µM is 81.9%

For record `O=C1c2cc(F)c(F)cc2-[n+]2ccc3c([nH]c4ccccc43)c21.[Cl-]` the listed viability at 48 h, 10 µM is 63.5%

For record `O=C(c1ccc(C(F)(F)F)cc1)c1nccc2c1[nH]c1ccccc12` the listed viability at 48 h, 10 µM is 106%

For record `O=C(c1ccccc1F)c1nccc2c1[nH]c1ccccc12` the listed viability at 48 h, 10 µM is 98.4%

For record O=C1c2ccccc2-[n+]2ccc3c([nH]c4ccccc43)c21.[Cl-] [FASCAPLYSIN CHLORIDE] the listed viability at 48 h, 10 µM is 57.5%

----------
# test.description: Thermodynamic aqueous solubility of the compound in water
# Format: physicochemical
# stated.conditions: read-out: Therm_solubility
Overview of recorded solubility thermodynamic for various compounds

Consider the following illustrative entries.
compound	solubility thermodynamic
O=C1c2ccccc2-[n+]2ccc3c([nH]c4ccccc43)c21.[Cl-] [FASCAPLYSIN CHLORIDE]	> 1500 µg/mL
C[n+]1ccc2c([nH]c3ccccc32)c1C(=O)c1ccccc1Br.[I-]	800 µg/mL

Kindly consider the entry below.
For record `O=C1c2cc(F)c(F)cc2-[n+]2ccc3c([nH]c4ccccc43)c21.[Cl-]` the listed solubility thermodynamic is > 1500 µg/mL

----------
# test.description: Thermodynamic aqueous solubility of the compound in stimulated intestinal fluid
# Type: ADME
# stated.conditions: simulated intestinal fluid; read-out: Therm_solubility
readout.type: solubility thermodynamic

molecule	solubility thermodynamic
O=C1c2cc(F)c(F)cc2-[n+]2ccc3c([nH]c4ccccc43)c21.[Cl-]	< 5 µg/mL
C[n+]1ccc2c([nH]c3ccccc32)c1C(=O)c1ccccc1Br.[I-]	800 µg/mL

Kindly consider the entry below.
For record O=C1c2ccccc2-[n+]2ccc3c([nH]c4ccccc43)c21.[Cl-] [FASCAPLYSIN CHLORIDE] the listed solubility thermodynamic is > 1500 µg/mL

----------
# test.description: Thermodynamic aqueous solubility of the compound in stimulated gastric fluid
# Format: ADME
# stated.conditions: simulated gastric fluid; read-out: Therm_solubility
Overview of recorded solubility thermodynamic for various molecules

Consider the following illustrative entries.
molecule	result
O=C1c2cc(F)c(F)cc2-[n+]2ccc3c([nH]c4ccccc43)c21.[Cl-]	80 µg/mL
C[n+]1ccc2c([nH]c3ccccc32)c1C(=O)c1ccccc1Br.[I-]	800 µg/mL

Kindly consider the entry below.
For record O=C1c2ccccc2-[n+]2ccc3c([nH]c4ccccc43)c21.[Cl-] [FASCAPLYSIN CHLORIDE] the listed solubility thermodynamic is > 1500 µg/mL

----------
Overview of recorded viability at 48 h, 10 µM for various compounds
# test.description: Cytotoxicity against human LS180 cells assessed as cell viability at 10 uM after 48 hrs by MTT assay relative to control
# Format: cell-based
# stated.conditions: read-out: Activity
Express it in %; write the number only.

smiles.entry	measurement.units	numeric.readout
O=C(c1cc(Cl)ccc1Cl)c1nccc2c1[nH]c1ccccc12	%	69.6
C[n+]1ccc2c([nH]c3ccccc32)c1C(=O)c1ccccc1F	%	69.8
C[n+]1ccc2c([nH]c3ccccc32)c1C(=O)c1ccccc1Cl	%	69.7
C[n+]1ccc2c([nH]c3ccccc32)c1C(=O)c1ccccc1Br.[I-]	%	69.1
C[n+]1ccc2c([nH]c3ccccc32)c1C(=O)c1ccccc1	%	77.5
C[n+]1ccc2c([nH]c3ccccc32)c1C(=O)c1ccc(C(F)(F)F)cc1	%	75.7
O=C(c1cc(F)c(Cl)cc1Cl)c1nccc2c1[nH]c1ccccc12	%	92.4
O=C(c1c[nH]c2ccccc12)c1nccc2c1[nH]c1ccccc12	%	78.7
C[n+]1ccc2c([nH]c3ccccc32)c1C(=O)c1c[nH]c2ccccc12	%	69.1
O=C(c1c(F)cccc1Cl)c1nccc2c1[nH]c1ccccc12	%	60.1

For record `O=C(c1ccccc1Cl)c1nccc2c1[nH]c1ccccc12` the listed viability at 48 h, 10 µM is 89.4

For record `O=C1c2c(Cl)cccc2-[n+]2ccc3c([nH]c4ccccc43)c21` the listed viability at 48 h, 10 µM is 63.4

For record `O=C(c1ccc(Cl)cc1Cl)c1nccc2c1[nH]c1ccccc12` the listed viability at 48 h, 10 µM is 98.8

For record `O=C(c1ccccc1Br)c1nccc2c1[nH]c1ccccc12` the listed viability at 48 h, 10 µM is 80.3

For record `O=C1c2ccc(Cl)cc2-[n+]2ccc3c([nH]c4ccccc43)c21` the listed viability at 48 h, 10 µM is 66.2

For record `COc1ccc(C(=O)c2nccc3c2[nH]c2ccccc23)c(OC)c1` the listed viability at 48 h, 10 µM is 82.2
